Attribution: patent US20150259331A1

Tested on: L. major amastigote
Protocol description: L. major amastigote assay
Assay type: cell-based
Reported conditions: Leishmania major
pEC50: −log10 of the molar value. Structures can show the parent of a compound that is named as a salt.
Overview of recorded pEC50 for various compounds

1) O=S(=O)(c1ccc(-c2ccc3cnnc(Nc4ccc(OCc5ccccc5)c(Cl)c4)c3c2)cc1)N1CCOCC1 | < 5.40
2) Cc1ccc(Nc2ncnc3ccc(-c4ccc(S(=O)(=O)N5CCOCC5)cc4)cc23)cc1 [Compound 20b, Hydrochloride] | < 4.82
3) O=C(c1cccc(-c2ccc3ncnc(Nc4ccc(OCc5cccc(F)c5)c(Cl)c4)c3c2)c1)N1CCOCC1 [Compound 23e] | < 4.82
4) CN1CCCN(S(=O)(=O)c2ccc(-c3ccc4cnnc(Nc5ccc(OCc6cccc(F)c6)c(Cl)c5)c4c3)cc2)CC1 | 5.25
5) O=S(=O)(c1ccc(-c2ccc3nncc(Nc4ccc(OCc5ccccc5)c(Cl)c4)c3c2)cc1)N1CCOCC1 | < 4.82

Field: next compound
Q. Item: O=S(=O)(c1ccc(-c2ccc3ncnc(Nc4ccc(O)c(Cl)c4)c3c2)cc1)N1CCOCC1 [Compound 20c, Hydrochloride] Test system: L. major amastigote Read-out: pEC50 Value: ?
A. < 4.82
